Test system: SK-MEL-5 melanoma
Test: NCI tumour cell line growth inhibition, 48 h
So I've got a bunch of molecules here, and I need their TGI values.

// below: answered molecules
Consider C/C(=N\NC(=O)c1cccnc1)c1cccc(/C(C)=N/NC(=O)c2cccnc2)n1.CC(=O)[O-].CC(=O)[O-].[Zn+2] . Its measured TGI is > 28.6 µM

Consider c1cncc(-c2nc3ccccc3s2)c1 . Its measured TGI is > 100 µM

Consider COc1cccc2c1-c1c(OC)cccc1SS2 . Its measured TGI is 26.5 µM

Please give TGI for each item listed below.
1. Nc1nc(NC2C=C(CO)C(O)C2O)c([N+](=O)[O-])c(=O)[nH]1 (stereo not drawn)
2. CN1CCN(/C(N)=C(\C#N)C(=O)Nc2ccccc2)CC1
3. COc1ccc(CCNC(=O)CCCCCO)cc1OC
4. O=C(NC12CC3CC(CC(C3)C1)C2)C(=O)c1c[nH]c2ccc([N+](=O)[O-])cc12
5. COc1ccc2nc(NCN3C(=O)c4ccccc4C3=O)sc2c1

1. > 100 µM
2. > 100 µM
3. > 100 µM
4. > 100 µM
5. > 100 µM

Please give TGI for each item listed below.
1. O=[N+]([O-])c1ccc2nc(/C=C(\O)c3ccccc3)c(/C=C(\O)c3ccccc3)nc2c1
2. C/C(CC(=O)Nc1ccc(Cl)cc1)=N\NC(=O)C[n+]1ccccc1
3. O=c1oc(-c2ccccc2)cc2cccc(O)c12
4. Cc1oncc1NC1=CC(=O)C(=O)c2ccccc21
5. COc1ccc(N2C(N)=C(C#N)C(C#N)(C#N)C2c2cccc([N+](=O)[O-])c2)cc1 (stereo not drawn)
6. NC(=O)CCC(NC(=O)c1cccc2c(=O)c3ccccc3[nH]c12)C(=O)O (stereo not drawn)

1: > 39.2 µM; 2: > 100 µM; 3: > 100 µM; 4: 3.68 µM; 5: 27.4 µM; 6: > 100 µM

Please give TGI for each item listed below.
1. Cc1cc2c(c(C(=O)NCCC(=O)N[C@@H](C)C(=O)OCc3ccccc3)c1)Oc1c(cc(C)cc1C(=O)NCCC(=O)N[C@@H](C)C(=O)OCc1ccccc1)S2
2. COc1cc([C@H]2c3cc4c(cc3[C@H](NCc3ccc([N+](=O)[O-])cc3)C3COC(=O)[C@H]32)OCO4)cc(OC)c1O (stereo partly drawn)
3. C[C@@H](NC(=O)[C@@H](CC(=O)N1CCC(N2CCCCC2)CC1)N1C(=O)[C@@H](N2C(=O)OC[C@@H]2c2ccccc2)[C@H]1/C=C/c1cccc(Cl)c1)c1ccccc1
4. O=C1NC(=O)C(c2ccc(Cl)cc2)=C1Nc1ccc(Cl)c(C(=O)O)c1
5. COc1ccc(/C(Cl)=C(\C=O)c2ccccc2)cc1OC
6. Cc1cccc(Cl)c1NC(=O)c1cnc(Nc2cc(N3CCOCC3)cc(N3CCOCC3)c2)s1

1. > 100 µM
2. 6.61 µM
3. 3.34 µM
4. > 25 µM
5. > 100 µM
6. > 10 µM
